- test-name: Kinetic solubility
- setup-conditions: kinetic from dmso stock, Solubility, kinetic solubility; n = 1 or average of n = 2-3
measured-metric: solubility (µM)

// solved cases for solubility follow
# molecule, solubility / µM
data = [
    ("N#C[C@@H]1CSCN1C(=O)CNC(=O)c1ccnc2ccc(N3CCC(F)(F)CC3)cc12", 600),
    ("COC1CN(c2ccc3nccc(C(=O)NCC(=O)N4CSC[C@H]4C#N)c3c2)C1", 210),
    ("N#C[C@@H]1CSCN1C(=O)CNC(=O)c1ccnc2ccc(N3C[C@@H]4[C@H](C3)[C@H]4C(F)(F)F)cc12", 1.6),
    ("N#C[C@@H]1CSCN1C(=O)CNC(=O)c1ccnc2ccc(N3CC4CCC(C3)O4)cc12", 610),
    ("N#C[C@@H]1CSCN1C(=O)CNC(=O)c1ccnc2ccc(N3CC(c4ccc(F)cc4)C3)cc12", 7),
    ("N#C[C@@H]1CSCN1C(=O)CNC(=O)c1ccnc2ccc(N3CCOC(F)(F)C3)cc12", 55),
    ("N#C[C@@H]1CSCN1C(=O)CNC(=O)c1ccnc2ccc(-n3ccc4c3CCCC4)cc12", 2.5),
    ("C[C@@H]1CCN(c2ccc3nccc(C(=O)NCC(=O)N4CSC[C@H]4C#N)c3c2)C1=O (single isomer, unassigned)", 140),
    ("CS(=O)(=O)C[C@@H]1CN(c2ccc3nccc(C(=O)NCC(=O)N4CSC[C@H]4C#N)c3c2)CCO1", 920),
    ("N#C[C@@H]1CSCN1C(=O)CNC(=O)c1ccnc2ccc(N3CC(CCC(F)(F)F)C3)cc12", 1.8),
]

a: N#C[C@@H]1CSCN1C(=O)CNC(=O)c1ccnc2ccc(-c3ccc(F)cn3)cc12
b: CC1(C)CCc2cn(-c3ccc4nccc(C(=O)NCC(=O)N5CSC[C@H]5C#N)c4c3)nc21
Would you kindly point out which of a and b has the smaller solubility figure? Answer format: the label of the selected item.
b
(b: 25 µM, a: 38 µM)

a: CC1(CC(F)(F)F)CN(c2ccc3nccc(C(=O)NCC(=O)N4CSC[C@H]4C#N)c3c2)C1
b: N#C[C@@H]1CSCN1C(=O)CNC(=O)c1ccnc2ccc(-n3ccnc3-c3ccccc3)cc12
c: CC(C)OC1CCN(c2ccc3nccc(C(=O)NCC(=O)N4CSC[C@H]4C#N)c3c2)CC1
d: CC(=O)N1CC2(C1)CN(c1ccc3nccc(C(=O)NCC(=O)N4CSC[C@H]4C#N)c3c1)C2
e: N#C[C@@H]1CSCN1C(=O)CNC(=O)c1ccnc2ccc(-n3ccc4c(F)cc(F)cc43)cc12
Reorder: solubility, max to min. Rank the items, then write their labels in that order.
d, b, a, c, e

a: N#C[C@@H]1CSCN1C(=O)CNC(=O)c1ccnc2ccc(N3C[C@@H]4CC[C@H]3C4)cc12 (mixture of isomers)
b: N#C[C@@H]1CSCN1C(=O)CNC(=O)c1ccnc2ccc(-c3cccnc3)cc12
Would you kindly point out which of a and b has the smaller solubility figure? Answer format: the label of the selected item.
a
(a: 150 µM, b: 400 µM)

These data points were gathered from patent US20230312550A1.
